assay: Plasma dosimetry of PFHxSA and PFHxS by targeted LC/MS/MS; type: in vivo, rat; conditions: female, Sprague Dawley (Crl:CD(SD)), rat, plasma, oral, 1 mg/kg/day, PFHxSA 1 mg/kg/day oral 5 days; female rats; mean ± SD; read-out: PFHxSA Female Plasma Conc.
PARAMETER: concentration at 24 h (µM)

NS(=O)(=O)C(F)(F)C(F)(F)C(F)(F)C(F)(F)C(F)(F)C(F)(F)F [PFHxSA, Perfluorohexanesulfonamide]; 21.3

* * *

Experiment: Plasma dosimetry of PFHxSA and PFHxS by targeted LC/MS/MS
Assay type: in vivo, rat
Details: male, Sprague Dawley (Crl:CD(SD)), rat, plasma, oral, PFHxSA 100 mg/kg/day oral 5 days; male rats; mean ± SD; read-out: PFHxS Male Plasma Conc.
Description: The plasma and liver samples for this investigation were provided by Mutlu et al.. […] Detailed information on solvents and standards used for targeted LC/MS/MS of PFHxSA and PFHxS can be found in SI Text S1 and SI Table S1. […] Refer to SI Text S4 for additional experimental details and information on calibration and QC parameters for quantitation of PFHxSA. […]
PARAMETER: concentration at 24 h (µM)

O=S(=O)(O)C(F)(F)C(F)(F)C(F)(F)C(F)(F)C(F)(F)C(F)(F)F [PFHxS, perfluorohexane sulfonic acid]; 396

* * *

assay: Ultracentrifugation plasma protein binding assay, rat plasma; assay type: in vitro ADME; conditions: both sexes, SD, blood (estimated from fup in plasma); Rat; fup adjusted for blood/plasma partitioning; read-out: fub (fraction unbound in blood)
PARAMETER: fraction unbound at 1 h, 10 µM

O=S(=O)(O)C(F)(F)C(F)(F)C(F)(F)C(F)(F)C(F)(F)C(F)(F)F; 0.0014
NS(=O)(=O)C(F)(F)C(F)(F)C(F)(F)C(F)(F)C(F)(F)C(F)(F)F [PFHxSA, Perfluorohexanesulfonamide]; 0.0018

* * *

test: Liver-to-plasma partitioning (Kp); format: in vivo, rat; settings: male, Sprague Dawley (Crl:CD(SD)), rat, liver and plasma, po, 30 mg/kg/day, PFHxSA 30 mg/kg/day oral 5 days; male; individual rats; read-out: Male Partition Coefficient (Kp), liver-plasma
PARAMETER: Kp at 120 h

NS(=O)(=O)C(F)(F)C(F)(F)C(F)(F)C(F)(F)C(F)(F)C(F)(F)F [PFHxSA, Perfluorohexanesulfonamide]; 0.156

* * *

Assay: Liver-to-plasma partitioning (Kp)
Type: in vivo, rat
Settings: male, Sprague Dawley (Crl:CD(SD)), rat, liver and plasma, po, 100 mg/kg/day, PFHxSA 100 mg/kg/day oral 5 days; male rats; mean ± SD; read-out: PFHxSA liver-to-plasma Kp, Male Rats
Description: Liver-to-plasma partitioning (Kp) for PFHxSA was assessed for each sex (SI Text S8, Table 6). There were no sex differences in PFHxSA Kp values. […] Refer to SI Table S15 for Kp results for individual rats. […] Text S8 Liver-to-Plasma Partitioning Coefficient Calculation Concentrations (µM) of PFHxSA in liver and plasma were used to calculate experimental liver-to- plasma (Kp) partitioning values for both sexes across all dose levels using Equation E. (E) K ௣ = Concentration௢௥௚௔௡Concentration௣௟௔௦௠௔
PARAMETER: Kp at 120 h

NS(=O)(=O)C(F)(F)C(F)(F)C(F)(F)C(F)(F)C(F)(F)C(F)(F)F [PFHxSA, Perfluorohexanesulfonamide]; 0.403

* * *

experiment: Plasma dosimetry of PFHxSA and PFHxS by targeted LC/MS/MS; type: in vivo, rat; conditions: female, Sprague Dawley (Crl:CD(SD)), rat, plasma, oral, 30 mg/kg/day, PFHxSA 30 mg/kg/day oral 5 days; female rats; mean ± SD; read-out: PFHxSA Female Plasma Conc.
PARAMETER: concentration at 24 h (µM)

NS(=O)(=O)C(F)(F)C(F)(F)C(F)(F)C(F)(F)C(F)(F)C(F)(F)F [PFHxSA, Perfluorohexanesulfonamide]; 179

* * *

experiment: Liver-to-plasma partitioning (Kp); assay type: in vivo, rat; conditions: female, Sprague Dawley (Crl:CD(SD)), rat, liver and plasma, po, 1 mg/kg/day, PFHxSA 1 mg/kg/day oral 5 days; female rats; mean ± SD; read-out: PFHxSA liver-to-plasma Kp, Female Rats
PARAMETER: Kp at 120 h

NS(=O)(=O)C(F)(F)C(F)(F)C(F)(F)C(F)(F)C(F)(F)C(F)(F)F [PFHxSA, Perfluorohexanesulfonamide]; 0.21

* * *

assay: Plasma dosimetry of PFHxSA and PFHxS by targeted LC/MS/MS; assay type: in vivo, rat; settings: male, Sprague Dawley (Crl:CD(SD)), rat, plasma, oral, 10 mg/kg/day, PFHxSA 10 mg/kg/day oral 5 days; male rats; mean ± SD; read-out: PFHxSA Male Plasma Conc.
PARAMETER: concentration at 24 h

NS(=O)(=O)C(F)(F)C(F)(F)C(F)(F)C(F)(F)C(F)(F)C(F)(F)F [PFHxSA, Perfluorohexanesulfonamide]; 56.8 µM

* * *

test: Liver-to-plasma partitioning (Kp); assay type: in vivo, rat; settings: female, Sprague Dawley (Crl:CD(SD)), rat, liver and plasma, po, 10 mg/kg/day, PFHxSA 10 mg/kg/day oral 5 days; female; individual rats; read-out: Female Partition Coefficient (Kp), liver-plasma
PARAMETER: Kp at 120 h

NS(=O)(=O)C(F)(F)C(F)(F)C(F)(F)C(F)(F)C(F)(F)C(F)(F)F [PFHxSA, Perfluorohexanesulfonamide]; 0.183

* * *

assay: Liver-to-plasma partitioning (Kp); type: in vivo, rat; details: male, Sprague Dawley (Crl:CD(SD)), rat, liver and plasma, po, 10 mg/kg/day, PFHxSA 10 mg/kg/day oral 5 days; male rats; mean ± SD; read-out: PFHxSA liver-to-plasma Kp, Male Rats
PARAMETER: Kp at 120 h

NS(=O)(=O)C(F)(F)C(F)(F)C(F)(F)C(F)(F)C(F)(F)C(F)(F)F [PFHxSA, Perfluorohexanesulfonamide]; 0.189

* * *

assay: Plasma dosimetry of PFHxSA and PFHxS by targeted LC/MS/MS; format: in vivo, rat; settings: male, Sprague Dawley (Crl:CD(SD)), rat, plasma, oral, 30 mg/kg/day, PFHxSA 30 mg/kg/day oral 5 days; male rats; mean ± SD; read-out: PFHxSA Male Plasma Conc.
PARAMETER: concentration at 24 h

NS(=O)(=O)C(F)(F)C(F)(F)C(F)(F)C(F)(F)C(F)(F)C(F)(F)F [PFHxSA, Perfluorohexanesulfonamide]; 81.2 µM

* * *

assay: Plasma dosimetry of PFHxSA and PFHxS by targeted LC/MS/MS; format: in vivo, rat; conditions: male, Sprague Dawley (Crl:CD(SD)), rat, plasma, oral, 3 mg/kg/day, PFHxSA 3 mg/kg/day oral 5 days; male rats; mean ± SD; read-out: PFHxSA Male Plasma Conc.
PARAMETER: concentration at 24 h

NS(=O)(=O)C(F)(F)C(F)(F)C(F)(F)C(F)(F)C(F)(F)C(F)(F)F [PFHxSA, Perfluorohexanesulfonamide]; 27.1 µM

* * *

test: Liver-to-plasma partitioning (Kp); type: in vivo, rat; conditions: female, Sprague Dawley (Crl:CD(SD)), rat, liver/plasma, po, 0.1 mg/kg/day, PFHxSA 0.1 mg/kg/day oral 5 days; female rats; mean ± SD; read-out: PFHxSA liver-to-plasma Kp, Female Rats
PARAMETER: Kp at 120 h

NS(=O)(=O)C(F)(F)C(F)(F)C(F)(F)C(F)(F)C(F)(F)C(F)(F)F [PFHxSA, Perfluorohexanesulfonamide]; 0.42

* * *

assay: Plasma dosimetry of PFHxSA and PFHxS by targeted LC/MS/MS; assay type: in vivo, rat; conditions: female, Sprague Dawley (Crl:CD(SD)), rat, plasma, oral, 0.3 mg/kg/day, PFHxSA 0.3 mg/kg/day oral 5 days; female rats; mean ± SD; read-out: PFHxSA Female Plasma Conc.
PARAMETER: concentration at 24 h (µM)

NS(=O)(=O)C(F)(F)C(F)(F)C(F)(F)C(F)(F)C(F)(F)C(F)(F)F [PFHxSA, Perfluorohexanesulfonamide]; 4.34

* * *

assay: Plasma dosimetry of PFHxSA and PFHxS by targeted LC/MS/MS; assay type: in vivo, rat; settings: male, Sprague Dawley (Crl:CD(SD)), rat, plasma, oral, 0.1 mg/kg/day, PFHxSA 0.1 mg/kg/day oral 5 days; male rats; mean ± SD; read-out: PFHxSA Male Plasma Conc.
PARAMETER: concentration at 24 h (nM)

NS(=O)(=O)C(F)(F)C(F)(F)C(F)(F)C(F)(F)C(F)(F)C(F)(F)F [PFHxSA, Perfluorohexanesulfonamide]; 796

* * *

assay: Plasma dosimetry of PFHxSA and PFHxS by targeted LC/MS/MS; format: in vivo, rat; details: male, Sprague Dawley (Crl:CD(SD)), rat, plasma, oral, 100 mg/kg/day, PFHxSA 100 mg/kg/day oral 5 days; male rats; average; read-out: PFHxSA Male Plasma Conc.
PARAMETER: concentration at 24 h (µM)

NS(=O)(=O)C(F)(F)C(F)(F)C(F)(F)C(F)(F)C(F)(F)C(F)(F)F [PFHxSA, Perfluorohexanesulfonamide]; 62.1

Hello, the source for this data is paper PMC12737022, in case you need it.
